Form field: growth (one value per entry).
Tested on: NCI/ADR-RES ovarian
Method Summary: NCI-60 one-dose screen, 48 h (100 = growth as untreated, 0 = no growth, -100 = all killed)
Conditions: 10 µM unless noted
The panel holds about 83,000 compounds, 20% with a hit somewhere; the sample as a whole holds those more often. Activity calls are given as the source filed them. The calls were made as follows: active = growth percent below 10; inactive = the rest.
Readout Label: growth

Compound	Target Entity	Endpoint Value
C=C(C)C1CCC2(C(=O)O)CCC3(C)C(CCC4C5(C)CCC(OC(=O)NCc6ccccc6)C(C)(C)C5CCC43C)C12 (stereo not drawn)	NCI/ADR-RES ovarian	44.8% (inactive)
C=C1C(=O)O[C@H]2[C@H]1CC/C(COC(=O)NCc1ccc(Cn3c(=O)sn(-c4ccc(Cl)cc4)c3=O)cc1)=C\CC[C@@]1(C)O[C@@H]21	NCI/ADR-RES ovarian	102% (inactive)
CC1(C)CC[C@]23CC[C@]4(C)[C@H](CC[C@@H]5[C@@]6(C)C/C(=C/c7cccnc7)C(=O)C(C)(C)[C@@H]6CC[C@]54C)[C@H]2[C@H]1OC3=O	NCI/ADR-RES ovarian	50.1% [100 µM] (inactive)
CCN1CCN(CC(=O)Nc2nc3ccc(NCc4ccc(Cl)cc4)cc3s2)CC1	NCI/ADR-RES ovarian	82.6% (inactive)
CC(C)OC(=O)Nc1cc(F)ccc1F	NCI/ADR-RES ovarian	102% (inactive)
COc1ccc(/C=C/C(=C/c2c(O)[nH]c3cc(Br)ccc23)N=O)cc1	NCI/ADR-RES ovarian	111% (inactive)
COC(=O)[C@]12CCC(C)(C)C[C@H]1C1=CC[C@@H]3[C@@]4(C)C/C(=C/c5cccnc5)C(=O)C(C)(C)[C@@H]4CC[C@@]3(C)[C@]1(C)CC2	NCI/ADR-RES ovarian	-40.5% [100 µM] (active)
CC(=O)Nc1ccc(C=Nc2ccc3ccccc3c2)cc1	NCI/ADR-RES ovarian	115% (inactive)
CCOC(=O)c1cc(C#N)n2ncc3ccccc3c12	NCI/ADR-RES ovarian	97.7% (inactive)
CCCCCCCCCN(CCCCCCCCC)C(C)C(=O)c1ccc2cc(Br)c3ccccc3c2c1 (stereo not drawn)	NCI/ADR-RES ovarian	84.9% (inactive)
COc1ccc2nc3c(cc2c1)C(=O)CC(c1ccccc1)C3 (stereo not drawn)	NCI/ADR-RES ovarian	13.2% (inactive)
Cc1ccc2c(c1)C(C)Cc1c(Cl)ncnc1N2C (stereo not drawn)	NCI/ADR-RES ovarian	10.7% (inactive)
CCn1cc(-c2ccnc(NCCNS(=O)(=O)c3cccc4ccccc34)c2)c(-c2cccc(O)c2)n1	NCI/ADR-RES ovarian	102% (inactive)
CCCCC(CC)COC(=O)C[N+](C)(C)CCOC(c1ccccc1)c1ccccc1 (stereo not drawn)	NCI/ADR-RES ovarian	99.1% (inactive)
CC(=O)Nc1ccc2nc3ccc(NC(C)=O)cc3[n+](-c3ccccc3)c2c1	NCI/ADR-RES ovarian	107% (inactive)
C#C[C@]1(O)CC[C@H]2[C@@H]3CC=C4c5nc(Nc6ncccn6)sc5CC[C@]4(C)[C@H]3CC[C@@]21C	NCI/ADR-RES ovarian	75.4% (inactive)
CCCCC1COc2cccc3c2N1C=C/C3=C\C(=O)n1ccc2ccccc21 (stereo not drawn)	NCI/ADR-RES ovarian	67.2% (inactive)
COC(=O)c1cc(O)c2c(c1C(=O)OC)C[C@H]1[C@@H]3CC=C4C[C@@H](O)CC[C@]4(C)[C@H]3CC[C@]21C	NCI/ADR-RES ovarian	44.2% (inactive)
